Values from ChEMBL document CHEMBL4038314

# System: Mus musculus
# Assay Summary: Cardiovascular activity in anesthetized mouse assessed as increase in heart rate at 1.4 uM/kg, iv relative to control
# Assay type: functional, organism-based
Calls of active or inactive are those of the source. The calls are words filed in the database; no cut-off is given here. Starred links: 1 amine or outer side, 2 acyl side, 3 side chain; linkers in the order of their positions; H or OH if unused. Non-standard residues stand in square brackets, D forms with d. Residues, ends and D or L forms follow the SMILES beside them. Phe(4-Br) = N[C@@H](Cc1ccc(Br)cc1)C(=O)O; X1 = N=C(N)NCCCN(N[*:1])C(=O)[*:2]; pGlu = O=C1CC[C@@H](C(=O)O)N1; Nle = CCCC[C@H](N)C(=O)O; Aib = CC(C)(N)C(=O)O
Choose one outcome from this list and give only that: yes (active), no (inactive)

Please review the entries below; each comes with its answer.
| Molecule | Label Class |
| --- | --- |
| CCCC[C@H](NC(=O)[C@@H]1CCCN1C(=O)CNC(=O)[C@H](CCCCN)NC(=O)[C@H](Cc1c[nH]cn1)NC(=O)[C@H](CO)NC(=O)[C@](C)(CC(C)C)NC(=O)[C@H](CCCNC(=N)N)NC(=O)[C@@H]1CCCN1C(=O)[C@H](CCCNC(=N)N)NC(=O)[C@@H]1CCC(=O)N1)C(=O)NC(C)(C)C(=O)N[C@@H](Cc1ccc(Br)cc1)C(=O)O | yes |
| CCCC[C@H](NC(=O)[C@@H]1CCCN1C(=O)CNC(=O)[C@H](CCCCN)NC(=O)[C@H](Cc1c[nH]cn1)NC(=O)[C@H](CO)NC(=O)[C@H](CC(C)C)N(C)C(=O)[C@H](CCCNC(=N)N)NC(=O)[C@@H]1CCCN1C(=O)[C@H](CCCNC(=N)N)NC(=O)[C@@H]1CCC(=O)N1)C(=O)NC(C)(C)C(=O)N[C@@H](Cc1ccc(Br)cc1)C(=O)O | yes |

query: Hello, I am checking results. What call was entered for CCCC[C@H](NC(=O)[C@@H]1CCCN1C(=O)CNC(=O)[C@H](CCCCN)NC(=O)[C@H](Cc1c[nH]cn1)NC(=O)[C@H](CO)NC(=O)[C@H](CC(C)C)NC(=O)N(CCCNC(=N)N)NC(=O)[C@@H]1CCCN1C(=O)[C@H](CCCNC(=N)N)NC(=O)[C@@H]1CCC(=O)N1)C(=O)NC(C)(C)C(=O)N[C@@H](Cc1ccc(Br)cc1)C(=O)O ([pGlu]RP[X1]LSHKGP[Nle][Aib][Phe(4-Br)]-OH) ?
result: yes

query: # repeat for CCCC[C@H](NC(=O)[C@@H]1CCCN1C(=O)CNC(=O)[C@H](CCCCN)NC(=O)[C@H](Cc1c[nH]cn1)NC(=O)[C@H](CO)NC(=O)[C@H](CC(C)C)NC(=O)[C@H](CCCNC(=N)N)NC(=O)[C@@H]1CCCN1C(=O)[C@H](CCCNC(=N)N)NC(=O)[C@@H]1CCC(=O)N1)C(=O)NC(C)(C)C(=O)N[C@@H](Cc1ccc(Br)cc1)C(=O)O
result: no
